Target: huPD-L1 (Homo sapiens, UniProt Q9NZQ7)
Sequence (Q9NZQ7 19-290): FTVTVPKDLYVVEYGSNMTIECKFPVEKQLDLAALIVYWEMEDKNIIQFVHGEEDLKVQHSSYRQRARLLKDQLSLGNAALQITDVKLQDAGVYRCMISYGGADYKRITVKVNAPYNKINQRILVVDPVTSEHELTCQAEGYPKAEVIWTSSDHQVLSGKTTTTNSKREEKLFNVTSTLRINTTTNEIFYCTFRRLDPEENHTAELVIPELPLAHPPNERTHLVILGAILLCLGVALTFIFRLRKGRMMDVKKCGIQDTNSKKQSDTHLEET
Test: Flow binding to CHO cells stably expressing PD-L1
Design: huCTLA4 and huPD-L1, full-length mammalian surface expression constructs were generated; expressed in transfected cells; host or cells: CHO cells, lentiviral transduction, sorted to >98% purity
Settings: Table E23; CD80 IgV-Fc (inert) at 33.3 nM; CHO cells stably expressing PD-L1
QUANTITY_NAME: PD-L1 MFI at 33.3 nM

H18I/A26P/E35D/M47V/V68M/A71G (protein, UniProt P33681 35-288, looked up, variant H18I A26P E35D M47V V68M A71G) T-lymphocyte activation …: VIHVTKEVKEVATLSCGINVSVEELPQTRIYWQKDKKMVLTMMSGDVNIWPEYKNRTIFDITNNLSIMILGLRPSDEGTYECVVLKYEKDAFKREHLAEVTLSVKADFPTPSISDFEIPTSNIRRIICSTSGGFPEPHLSWLENGEELNAINTTVSQDPETELYAVSSKLDFNMTTNHSFMCLIKYGHLRVNQTFNWNTTKQEHFPDNLLPSWAITLISVNGIFVICCLTYCFAPRCRERRRNERLRRESVRPV	64919

// field: PD-L1 MFI at 33.3 nM; key: H18V/A26Q/E35D/M47V/V68L/A71G/D90G (protein, UniProt P33681 35-288, looked up, variant H18V A26Q E35D M47V V68L A71G D90G) T-lymphocyte activation …: VIHVTKEVKEVATLSCGVNVSVEELQQTRIYWQKDKKMVLTMMSGDVNIWPEYKNRTIFDITNNLSILILGLRPSDEGTYECVVLKYEKGAFKREHLAEVTLSVKADFPTPSISDFEIPTSNIRRIICSTSGGFPEPHLSWLENGEELNAINTTVSQDPETELYAVSSKLDFNMTTNHSFMCLIKYGHLRVNQTFNWNTTKQEHFPDNLLPSWAITLISVNGIFVICCLTYCFAPRCRERRRNERLRRESVRPV ; value = 33597

Taken from patent US20220177587A1.
